- protocol notes: MTT cytotoxicity assay, Hep3B
- Type: cell-based
- assay setup: human, Hep3B cells, 0.064 to 40 μM
Overview of recorded IC50 at 48 h for various compounds

{"columns": ["compound", "IC50 at 48 h"],
 "data": [
  ["COCc1ccc(C=O)n1CCCC(=O)O", "> 40 µM"],
  ["CCCCOC(=O)CCCCNC(C)=O [Compound 2, butyl 5-acetamidopentanoate]", "> 40 µM"]
]}

---

- protocol notes: MTT cytotoxicity assay, HeLa
- Format: cell-based
- assay setup: human, HeLa cells, 0.064 to 40 μM

{"columns": ["compound", "IC50 at 48 h"],
 "data": [
  ["COCc1ccc(C=O)n1CCCC(=O)O [Compound 5]", "> 40 µM"],
  ["CCCCOC(=O)CCCCNC(C)=O [Compound 2, butyl 5-acetamidopentanoate]", "> 40 µM"]
]}

The measured values listed here are drawn from paper PMC10495297.
